target: Voltage-gated potassium channel subunit beta-2 (Rattus norvegicus) (UniProt P62483); test: KvBeta enzyme negative modulators, primary screen, biochemical, NADPH fluorescence (AID 622); settings: recombinant KvBeta, 4-cyanobenzaldehyde reduction, at 10 µM, stronger effect = higher value;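 further: slope of raw intensity against log time taken from 70 to 1610 s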
Sequence (P62483 whole entry, looked up): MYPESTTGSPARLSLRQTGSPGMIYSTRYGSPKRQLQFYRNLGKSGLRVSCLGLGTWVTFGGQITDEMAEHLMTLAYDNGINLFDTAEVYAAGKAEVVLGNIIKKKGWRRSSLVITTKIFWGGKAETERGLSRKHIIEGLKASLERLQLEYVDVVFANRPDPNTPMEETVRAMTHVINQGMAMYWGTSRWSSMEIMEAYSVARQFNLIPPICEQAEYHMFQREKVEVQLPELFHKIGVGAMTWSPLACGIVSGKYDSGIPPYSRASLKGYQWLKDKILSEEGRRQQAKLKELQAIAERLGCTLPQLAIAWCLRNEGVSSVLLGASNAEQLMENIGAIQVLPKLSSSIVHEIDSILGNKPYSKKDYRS
Label True when fluorescence slope >= -0.5; otherwise False.

Examples with answers:
COC(=O)c1ccc(Oc2nc3ccccc3n3c(C)nnc23)cc1	True
COc1ccc(-n2c(SCC(N)=O)nc3sc4c(c3c2=O)CCN(C)C4)cc1	True
O=C(O)c1ccc(OCCn2ccnc2)cc1	True
Cc1nc2c(c(=O)n1CC1CCCO1)c1nc3ccccc3nc1n2Cc1ccc2c(c1)OCO2 (stereo not drawn)	True

Q. Could you tell me if the measured fluorescence slope of CCOc1ccc(CC2CC(=O)NC2=O)cc1 (stereo not drawn) reaches -0.5 or more?
A. True

Q. Next molecule up: COc1ccccc1N1CCN(C(=O)c2c(C)cc(=O)oc2C)CC1
A. True

Reference source for all entries: PubChem BioAssay
